# assay.text: pKa, pI and charge distribution of buffers
Residues, ends and D or L forms follow the SMILES beside them.
quantity.kind: pka A
Give the figure only, with no unit attached.

Which pka A is listed for C[C@H](N)C(=O)N[C@@H](Cc1cnc[nH]1)C(=O)O [Ala-His] (H-Ala-His-OH) ?
2.42

Which pka A is listed for NCCCC[C@H](N)C(=O)N[C@@H](Cc1cnc[nH]1)C(=O)O [Lys-His] ?
2.42

----------
# assay.text: In vivo iontophoresis, pH control of anodic and cathodic buffer gels (Example 2)
# Parameters: species or system hairless guinea pigs
# measurement.conditions: for several hours, dipeptides at their pI
quantity.kind: pH control of an anodic electrotransport formulation

>>> print(df.to_string())
                                   compound    recorded_result
0  O=S(=O)(O)CCCN1CCOCC1 [MOPS, 3-[N-morpholino]propanesulphonic acid, reference compound]  lack of stability
1  O=P(O)(O)O [phosphate, phosphoric acid, reference compound]  lack of stability

----------
# assay.text: pKa, pI and charge distribution of buffers
# measurement.conditions: fraction of dipeptide carrying a net charge in aqueous solution at pH equal to pI
Non-standard residues stand in square brackets, D forms with d. Residues, ends and D or L forms follow the SMILES beside them. Cit = NC(=O)NCCC[C@H](N)C(=O)O
Lab note: cut-off is 20%. Strictly less in % salt is class 1. Exactly 20% or more is class 0.

A record lists NC(=O)NCCC[C@H](NC(=O)[C@@H](N)Cc1c[nH]cn1)C(=O)O [His-Citrulline] (H-His-[Cit]-OH) . Is its % salt below 20%?
class 0

A record lists Cn1cncc1C[C@H](NC(=O)CCN)C(=O)O [Anserine] . Is its % salt below 20%?
class 1

A record lists NCC(O)CC[C@H](NC(=O)[C@@H](N)Cc1c[nH]cn1)C(=O)O (some centres unmarked) [His-Hydroxylysine] . Is its % salt below 20%?
class 1

A record lists N[C@@H](Cc1ccc(O)cc1)C(=O)N[C@@H](Cc1cnc[nH]1)C(=O)O [Tyr-His] (H-Tyr-His-OH) . Is its % salt below 20%?
class 0

A record lists CC(C)C[C@H](N)C(=O)N[C@@H](Cc1cnc[nH]1)C(=O)O [Leu-His] (H-Leu-His-OH) . Is its % salt below 20%?
class 0

A record lists N[C@@H](Cc1cnc[nH]1)C(=O)N[C@@H](Cc1cnc[nH]1)C(=O)O [His-His] . Is its % salt below 20%?
class 0

A record lists NC(N)=NCCC[C@H](N)C(=O)N[C@@H](CC(=O)O)C(=O)O [Arg-Asp] (H-Arg-Asp-OH) . Is its % salt below 20%?
class 1

A record lists N[C@@H](Cc1cnc[nH]1)C(=O)N[C@@H](Cc1c[nH]c2ccccc12)C(=O)O [His-Trp] . Is its % salt below 20%?
class 0

----------
% salt reference
# assay.text: pKa, pI and charge distribution of buffers
# measurement.conditions: fraction of dipeptide carrying a net charge in aqueous solution at pH equal to pI
Residues, ends and D or L forms follow the SMILES beside them.
Expressed in %, but write only the number.

Some entries whose results are on file:
>>> df
                                   compound  result_unit  recorded_result
0  N[C@@H](CO)C(=O)N[C@@H](Cc1cnc[nH]1)C(=O)O [Ser-His] (H-Ser-His-OH)            %               36
1  C[C@@H](O)[C@H](N)C(=O)N[C@@H](Cc1cnc[nH]1)C(=O)O [Thr-His] (H-Thr-His-OH)            %               39
2  NC[C@H](O)CC[C@H](N)C(=O)N[C@@H](Cc1c[nH]cn1)C(=O)O [Hydroxylysine-His]            %               13
3  C[C@H](NC(=O)[C@@H](N)Cc1cnc[nH]1)C(=O)O [His-Ala] (H-His-Ala-OH)            %               22

Which % salt is listed for N[C@@H](Cc1ccccc1)C(=O)N[C@@H](Cc1cnc[nH]1)C(=O)O [Phe-His] (H-Phe-His-OH) ?
36

Which % salt is listed for NC(=O)C[C@H](N)C(=O)N[C@@H](Cc1cnc[nH]1)C(=O)O [Asn-His] (H-Asn-His-OH) ?
44

Which % salt is listed for NCCC[C@H](N)C(=O)N[C@@H](Cc1c[nH]cn1)C(=O)O ?
3

----------
pka A reference
# assay.text: pKa, pI and charge distribution of buffers
Residues, ends and D or L forms follow the SMILES beside them.
Give the figure only, with no unit attached.

>>> print(df.to_string())
                                   compound  quantity_kind  recorded_result
0  O=C(O)C(Cc1cnc[nH]1)NC(=O)C1CCCN1 (stereo not shown) [Pro-His]          pka A             2.42
1  C[C@@H](O)[C@H](N)C(=O)N[C@@H](Cc1cnc[nH]1)C(=O)O [Thr-His] (H-Thr-His-OH)          pka A             2.42
2  NCC(O)CC[C@H](NC(=O)[C@@H](N)Cc1c[nH]cn1)C(=O)O (stereo partly shown) [His-Hydroxylysine]          pka A             3.05
3  N[C@@H](Cc1cnc[nH]1)C(=O)N[C@@H](Cc1ccccc1)C(=O)O [His-Phe] (H-His-Phe-OH)          pka A             2.88
4  NC(=O)CC[C@H](NC(=O)[C@@H](N)Cc1cnc[nH]1)C(=O)O [His-Gln] (H-His-Gln-OH)          pka A             2.93

Which pka A is listed for N[C@@H](Cc1cnc[nH]1)C(=O)N[C@@H](CO)C(=O)O [His-Ser] (H-His-Ser-OH) ?
2.65

----------
# assay.text: pKa, pI and charge distribution of buffers
Residues, ends and D or L forms follow the SMILES beside them.
quantity.kind: pka A
Give the figure only, with no unit attached.

>>> df
                                   compound  recorded_result
0  CC(C)C[C@H](N)C(=O)N[C@@H](Cc1cnc[nH]1)C(=O)O [Leu-His] (H-Leu-His-OH)             2.42
1  NCCC[C@H](N)C(=O)N[C@@H](Cc1c[nH]cn1)C(=O)O             2.42
2  CC(C)[C@H](NC(=O)[C@@H](N)Cc1cnc[nH]1)C(=O)O [His-Val] (H-His-Val-OH)             3.18
3  N[C@@H](Cc1cnc[nH]1)C(=O)N[C@@H](Cc1cnc[nH]1)C(=O)O             2.25
4  N[C@@H](Cc1c[nH]cn1)C(=O)N1CC(O)C[C@H]1C(=O)O (some centres unmarked) [His-Hydroxyproline]             2.42

Which pka A is listed for CC(C)[C@H](N)C(=O)N[C@@H](Cc1cnc[nH]1)C(=O)O [Val-His] (H-Val-His-OH) ?
3.09

Which pka A is listed for N[C@@H](Cc1cnc[nH]1)C(=O)N1CCC[C@H]1C(=O)O ?
2.62

Which pka A is listed for NC(=O)CC[C@H](N)C(=O)N[C@@H](Cc1cnc[nH]1)C(=O)O [GIn-His] (H-Gln-His-OH) ?
2.42

----------
# assay.text: pKa, pI and charge distribution of buffers
# measurement.conditions: fraction of dipeptide carrying a net charge in aqueous solution at pH equal to pI
Residues, ends and D or L forms follow the SMILES beside them.
quantity.kind: % salt (%)
Expressed in %, but write only the number.

Which % salt is listed for CC[C@H](C)[C@H](NC(=O)[C@@H](N)Cc1cnc[nH]1)C(=O)O [His-Isoleucine] (H-His-Ile-OH) ?
22

Which % salt is listed for N[C@@H](Cc1cnc[nH]1)C(=O)N[C@@H](CC(=O)O)C(=O)O [His-Asp] (H-His-Asp-OH) ?
11

Which % salt is listed for N[C@@H](Cc1cnc[nH]1)C(=O)N[C@@H](CO)C(=O)O [His-Ser] (H-His-Ser-OH) ?
22

Which % salt is listed for CSCC[C@H](NC(=O)[C@@H](N)Cc1cnc[nH]1)C(=O)O [His-Met] (H-His-Met-OH) ?
22

----------
# assay.text: pKa, pI and charge distribution of buffers
quantity.kind: pI
Give the figure only, with no unit attached.

Some entries whose results are on file:
                                  substance  quantity_kind  recorded_result
0  Gly-Gly-Gly-His (GGGH; printed: Gly-Gly-Gly-His)             pI              7.5
1  His-Gly-Gly-Gly-Gly (HGGGG; printed: His-Gly-Gly-Gly-Gly)             pI              6.0
2  His-Gly-Gly-Gly (HGGG; printed: His-Gly-Gly-Gly)             pI              6.9

Which pI is listed for Gly-Gly-Gly-Gly-His (GGGGH; printed: Gly-Gly-Gly-Gly-His) ?
7.55
